Tested on: normal primary NK cells, pool 1 (3 donors), resting (IL-2 0 ng/mL)
Experiment: drug sensitivity score (DSS) (DSS units); higher = more sensitive; extreme values may be limits of the assay
Conditions: 72 h
Class true: drug sensitivity score at least 8. Class false: drug sensitivity score below 8.

MOLECULE | QUALITATIVE_LABEL
Cc1cc2c(F)c(Oc3ncnn4cc(OC[C@@H](C)O)c(C)c34)ccc2[nH]1 [Brivanib] (max concentration tested 1000 nM) | false
Nc1nc(Nc2ccc3c(c2)CC[C@@H](N2CCCC2)CC3)nn1-c1cc2c(nn1)-c1ccccc1CCC2 [BGB324] (max concentration tested 10000 nM) | true
Nc1ccccc1NC(=O)c1ccc(CNc2nccc(-c3cccnc3)n2)cc1 [Mocetinostat] (max concentration tested 10000 nM) | true
N#CCNC(=O)c1ccc(-c2ccnc(Nc3ccc(N4CCOCC4)cc3)n2)cc1 [Momelotinib] (max concentration tested 10000 nM) | false
